Recorded values, source PubChem BioAssay AID588332.

- targetOrTestSystem: ATP-dependent 6-phosphofructokinase (Geobacillus stearothermophilus) (UniProt P00512)
- assayExplanation: Confirmatory Assay to Find Inhibitors of T. brucei phosphofructokinase: Counter Screen against Bacillus PFK
- particulars: B. stearothermophilus PFK, ADP-Glo luminescence, 45 min; series mostly up to 57.5 µM
Active and inactive are the calls of the source. Calls follow the shape of the dose curve; as a rule, active = well fitted curve in the direction sought with a large enough effect; inactive = no such curve, though single readings can be large or run the other way.
readoutLabel: outcome

entrysmiles=CCOC(=O)c1cccc(NS(=O)(=O)c2ccc(NC(=O)Cc3ccc(Cl)c(Cl)c3)cc2)c1 reportedvalue=inactive
entrysmiles=Cc1cc(NS(=O)(=O)Cc2ccc(NC(=O)Cc3ccc(Cl)c(Cl)c3)cc2)no1 reportedvalue=inactive
entrysmiles=Cc1cc(NS(=O)(=O)c2ccc(NC(=O)Cc3ccc(Cl)c(Cl)c3)cc2)n(C)n1 reportedvalue=inactive
